# Test system: SF-268 CNS
# assay name: NCI-60 one-dose screen, 48 h (100 = growth as untreated, 0 = no growth, -100 = all killed)
# experimental setup: 10 µM unless noted
Compounds without any hit were thinned out: in the full panel of roughly 83,000, 20% have a hit.
property name: growth (%)
Output spec: scalar in %, unitless text.

Would you kindly share the measured growth for CCOC(=O)C(C#N)=C1CCN(C)CC1 ? 102

Would you kindly share the measured growth for C/C(Cc1ccccc1)=N\O ? 101

Would you kindly share the measured growth for C1C[S+]2CC[S+]1CC2 ? 102

Would you kindly share the measured growth for COC(=O)c1cccc([N+](=O)[O-])c1 ? 102

Would you kindly share the measured growth for CCCCN(C=S)CCCC ? 105

Would you kindly share the measured growth for O=C(O)c1ccccc1Cc1ccc2c(c1)CCCC2 ? 99.5

Would you kindly share the measured growth for N=C(N)c1nn(C2OC(CO)C(O)C2O)c2nc[nH]c(=O)c12 (stereo not drawn) ? -7.38

Would you kindly share the measured growth for O=C(c1ccccc1)c1ccc(-c2ccc(O)cc2)cc1 ? 67.4

Would you kindly share the measured growth for Nc1cc2ccccc2c(O)c1O ? 53.6

Would you kindly share the measured growth for NNC(=O)N/N=C1\C(=O)N(c2nccs2)C(=O)C(=O)C1c1nc2ccccc2s1 (stereo not drawn) ? 96.3

Would you kindly share the measured growth for CCCNS(=O)(=O)c1ccc(Cl)cc1 ? 106

Would you kindly share the measured growth for CC(=O)NNC(=S)/N=C\C(C(=O)c1ccccc1)=C(/O)c1ccccc1 ? 99.2

Would you kindly share the measured growth for O=C(NC1CCCCC1)c1ccc(Cl)cc1 ? 97.1

Would you kindly share the measured growth for CC(=O)CSc1ncnc2nc[nH]c12 ? 105

Would you kindly share the measured growth for Cc1cc2c3ccc(C)[n+](C)c3ccc2n1C ? 19

Would you kindly share the measured growth for CC(C)Sc1ncnc2nc[nH]c12 ? 121

Would you kindly share the measured growth for CCCC(OC(C)=O)c1ccc2c(c1)OCO2 (stereo not drawn) ? 102

Would you kindly share the measured growth for COc1cc2c(c(OC)c1OC)-c1ccc(SC)c(=O)cc1[C@@H](NC1OC(CO)C(O)C(O)C1O)CC2 (stereo partly drawn) ? 22.7

Would you kindly share the measured growth for CCCCOC(=O)c1ccccc1O ? 117

Would you kindly share the measured growth for Cc1c(Cl)cccc1N=C=S ? 107

Would you kindly share the measured growth for CC(=O)OCC1OC(n2cnc3c(=S)nc(N)[nH]c32)C(OC(C)=O)C1OC(C)=O (stereo not drawn) ? 76.8

Would you kindly share the measured growth for CCCCNC(=O)c1ccc(OCC)cc1 ? 106

Would you kindly share the measured growth for O=c1cc(Cl)nc2ccccn12 ? 112

Would you kindly share the measured growth for Cc1ccc(C2CCCCC2)cc1Br ? 99.5

Would you kindly share the measured growth for O=S(Cc1ccccc1)/C(=C/NC(=S)Nc1cc(Cl)ccc1Cl)c1ccccc1 (stereo not drawn) ? 93.1

Would you kindly share the measured growth for CC(=O)NCNC(C)=O ? 110

Would you kindly share the measured growth for CCOC(=O)c1ccc(C(C)(C)C)cc1 ? 98.9

Would you kindly share the measured growth for CCOC(=O)C1(N)CCCCC1 ? 102
